Ref: patent US9527830B2

- target: hROMK1 (Kir1.1) (Homo sapiens, UniProt P48048)
- Sequence (P48048 1-391): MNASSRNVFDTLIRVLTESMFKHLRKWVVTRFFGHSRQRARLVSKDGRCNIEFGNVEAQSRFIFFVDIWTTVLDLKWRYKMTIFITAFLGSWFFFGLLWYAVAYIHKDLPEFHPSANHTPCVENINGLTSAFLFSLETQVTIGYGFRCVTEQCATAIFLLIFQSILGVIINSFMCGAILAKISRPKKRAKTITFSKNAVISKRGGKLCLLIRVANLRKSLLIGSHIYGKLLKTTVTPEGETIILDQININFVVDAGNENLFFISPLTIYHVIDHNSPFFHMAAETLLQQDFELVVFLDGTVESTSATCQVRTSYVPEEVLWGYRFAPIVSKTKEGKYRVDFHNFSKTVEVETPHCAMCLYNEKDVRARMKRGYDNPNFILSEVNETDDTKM
- experiment: ^86Rb^+ Efflux Assay
- setup_conditions: CHO-DHFR- cells stably expressing hROMK1; potency ranges
pIC50: −log10 of the molar value.
property_label: pIC50

- O=C1OCc2c1ccc(CCC1CCN(C(=O)Cc3ccc(-n4cnnn4)cc3)CC1)c2F: ≥ 6.70
- N#Cc1cc(CCC2(CO)CCN(C(=O)Cc3ccc(-n4cnnn4)cc3)CC2)ccc1F: ≥ 6.30
- N#Cc1c(F)ccc(C#CC2(O)CCN(C(=O)Cc3ccc(-n4cnnn4)cc3)CC2)c1F: ≥ 6.30
- O=[N+]([O-])c1ccc(/C=C/C2CCN(CCc3ccc([N+](=O)[O-])cc3)CC2)cc1: ≥ 6.70
- N#Cc1cc(/C=C/C2(O)CCN(C(=O)Cc3ccc(-n4cnnn4)cc3)CC2)ccc1F: ≥ 6.30
- Cc1c(CCN2CCC(NCc3ccc(C#N)c(F)c3)CC2)ccc2c1COC2=O: ≥ 6.30
- CC1Cc2cc(/C=C/C3CCN(C(=O)Cc4ccc(-n5cnnn5)cc4)CC3)ccc2C(=O)O1 (centres unmarked): ≥ 6.70
- O=C(Cc1ccc(-n2cnnn2)cc1)N1CCC(/C=C/c2ccc3nonc3c2)CC1: ≥ 6.70
- Cc1cc(-n2cnnn2)ccc1CC(=O)N1CCC(O)(CCc2ccc(F)c(C#N)c2)CC1: ≥ 6.30
- Cc1c(CCN2CCC(NCc3ccc4c(c3)COC4=O)CC2)ccc2c1COC2=O: ≥ 6.70
- O=C1OCCc2cc(CCC3CCN(C(=O)Cc4ccc(-n5cnnn5)cc4)CC3)ccc21: ≥ 6.70
- N#Cc1cc(CCC2(O)CCN(CCc3ccc4c(c3)COC4=O)CC2)ccc1F: ≥ 6.70
- Cc1c(C#CC2(O)CCN(C(=O)Cc3ccc(-n4cnnn4)cc3)CC2)ccc(F)c1C#N: ≥ 6.30
- O=C1OCc2c1ccc(/C=C/C1CCN(C(=O)Cc3ccc(-n4cnnn4)cc3)CC1)c2Br: ≥ 6.30
- Cc1c(CCN2CCC(NCc3ccc4nonc4c3)CC2)ccc2c1COC2=O: ≥ 6.30
- O=C1OCc2cc(CCC3CCN(C(=O)C4CCc5cc(-n6cnnn6)ccc54)CC3)ccc21 (centres unmarked): ≥ 6.70
- N#Cc1c(F)ccc(C#CC2(O)CCN(C(=O)Cc3ccc(-n4cnnn4)cc3)CC2)c1Cl: ≥ 6.30

----------
- target: hROMK (hKir1.1) (Homo sapiens, UniProt P48048)
- experiment: Thallium Flux Assay (FluxOR, FLIPR-Tetra)
- setup_conditions: HEK293 cells stably expressing hROMK; potency ranges
Examples of compounds with documented IC50 follow.
property_label: IC50

* Cc1c([C@@H](O)CN2CCC(CSc3ccc4c(c3)CCOC4=O)CC2)ccc2c1COC2=O | ≤ 200 nM
* Cc1c(SCC2CCN(C[C@H](O)c3ccc4c(c3C)COC4=O)CC2)ccc2c1COC2=O | ≤ 100 nM
* Cc1c(OCC2CCN(C[C@H](O)c3ccc4c(c3C)COC4=O)CC2)ccc2c1COC2=O | ≤ 100 nM
* Cc1c([C@@H](O)CN2CCC(F)(COc3ccc(C#N)cn3)CC2)ccc2c1COC2=O | ≤ 200 nM
* Cc1c([C@@H](O)CN2[C@@H]3CC[C@H]2CC(Nc2ccc(C#N)cn2)C3)ccc2c1COC2=O (stereo partly shown) | ≤ 100 nM
* Cc1c(C(O)CC2CCN(C[C@H](O)c3ccc4c(c3C)COC4=O)CC2)ccc2c1COC2=O (stereo partly shown) | ≤ 100 nM
* Cc1c([C@@H](O)CN2CCC(C)(COc3ccc(C#N)cn3)CC2)ccc2c1COC2=O | ≤ 100 nM
* Cc1c(CCN2CCC(NCc3ccc4nonc4c3)CC2)ccc2c1COC2=O | ≤ 200 nM
* Cc1c([C@@H](O)CN2CCC(C[S+]([O-])c3ccc4c(c3)CCOC4=O)CC2)ccc2c1COC2=O (stereo partly shown) | ≤ 100 nM
* Cc1c(C(O)CC2CCN(C(=O)Cc3ccc(-n4cnnn4)nc3)CC2)ccc2c1COC2=O (racemic) | ≤ 100 nM
* Cc1c(CC(O)C2CCN(C[C@H](O)c3ccc4c(c3C)COC4=O)CC2)ccc2c1COC2=O (stereo partly shown) | ≤ 100 nM
* Cc1c([C@@H](O)CN2CCC(Nc3ccc(C#N)cn3)CC2)ccc2c1COC2=O | ≤ 100 nM
* Cc1c([C@@H](O)CN2CCC(CSc3ccc(C#N)cn3)CC2)ccc2c1COC2=O | ≤ 100 nM
* Cc1c([C@@H](O)CN2CCC(CS(=O)(=O)c3ccc4c(c3C)COC4=O)CC2)ccc2c1COC2=O | ≤ 100 nM
* Cc1c([C@@H](O)CN2CCC(CS(=O)(=O)c3ccc4c(c3)CCOC4=O)CC2)ccc2c1COC2=O | ≤ 100 nM
* Cc1c([C@@H](O)CN2CC3C(COc4ccc(C#N)cn4)C3C2)ccc2c1COC2=O (stereo partly shown) | ≤ 100 nM
